# target: 4'-phosphopantetheinyl transferase ffp (Bacillus subtilis) (UniProt Q9F4F7)
# assay_name: qHTS Assay for Inhibitors of Bacillus subtilis Sfp phosphopantetheinyl transferase (PPTase);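 note: the enzyme is Sfp with the accession as filed and its product quenches rhodamine fluorescence; 0% = enzyme reaction without inhibitor and -100% = no enzyme wells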
# setup_conditions: Biochemical Sfp PPTase activity
Hit rate of the full screen: of about 310,000 compounds, about 11,000 (3.5%) were called active. Not shown: some 4% with an inconclusive outcome. The full list was thinned out, with actives kept by preference.
recorded_metric: largest response in the series, negative = inhibition (%)
Numbers only here, please. The scale is %.

4'-phosphopantetheinyl transferase ffp (Bacillus subtilis) (UniProt Q9F4F7) largest response in the series, negative = inhibition of N#CC1=C(N)Oc2n[nH]c(CSc3ccccc3)c2C12C(=O)Nc1ccccc12 (configuration not stated) is 17.6

4'-phosphopantetheinyl transferase ffp (Bacillus subtilis) (UniProt Q9F4F7) largest response in the series, negative = inhibition of C/C(=N/NC(=O)c1ccn(C)n1)c1ccncc1 is 5.8

4'-phosphopantetheinyl transferase ffp (Bacillus subtilis) (UniProt Q9F4F7) largest response in the series, negative = inhibition of Cc1ccccc1CN1C(=O)c2ccccc2Sc2ccc(C(=O)NCCCN3CCOCC3)cc21 is -13.2

4'-phosphopantetheinyl transferase ffp (Bacillus subtilis) (UniProt Q9F4F7) largest response in the series, negative = inhibition of COc1ccccc1N1CCN(S(=O)(=O)c2ccc3c(c2)NC(=O)CS3)CC1 is 7.23

4'-phosphopantetheinyl transferase ffp (Bacillus subtilis) (UniProt Q9F4F7) largest response in the series, negative = inhibition of CC1(C)Cc2ccccc2-c2[nH]c(=S)[nH]c(=O)c21 is 2.54

4'-phosphopantetheinyl transferase ffp (Bacillus subtilis) (UniProt Q9F4F7) largest response in the series, negative = inhibition of CCN1CCN(CCNC(=O)c2ccc3c(c2)NC(=O)/C(=C\c2ccc(OC)c(OC)c2)S3)CC1 is -5.49

4'-phosphopantetheinyl transferase ffp (Bacillus subtilis) (UniProt Q9F4F7) largest response in the series, negative = inhibition of CC(C)Sc1ncnc2c1cnn2-c1ccccc1 is -5.09

4'-phosphopantetheinyl transferase ffp (Bacillus subtilis) (UniProt Q9F4F7) largest response in the series, negative = inhibition of COc1ccccc1NC(=O)CSc1nnc(C)n1CC1CCCO1 (configuration not stated) is 14.7

4'-phosphopantetheinyl transferase ffp (Bacillus subtilis) (UniProt Q9F4F7) largest response in the series, negative = inhibition of O=C(CN1CCN(c2cccc(Cl)c2)CC1)Nc1ccc(S(=O)(=O)N2CCOCC2)cc1 is 13

4'-phosphopantetheinyl transferase ffp (Bacillus subtilis) (UniProt Q9F4F7) largest response in the series, negative = inhibition of O=C(Nc1ccccc1)O/N=C1\CCCCC1c1ccc([N+](=O)[O-])cc1[N+](=O)[O-] (configuration not stated) is -6.23

4'-phosphopantetheinyl transferase ffp (Bacillus subtilis) (UniProt Q9F4F7) largest response in the series, negative = inhibition of O=C(CCCN1C(=O)/C(=C/c2cccs2)SC1=S)Nc1ccc(O)cc1 is -1.57

4'-phosphopantetheinyl transferase ffp (Bacillus subtilis) (UniProt Q9F4F7) largest response in the series, negative = inhibition of COc1ccc(/C=C2\SC(=S)N(CCC(=O)Nc3cccc(C(=O)O)c3)C2=O)cc1OC is -8.44

4'-phosphopantetheinyl transferase ffp (Bacillus subtilis) (UniProt Q9F4F7) largest response in the series, negative = inhibition of O=C(Cn1nnc(-c2ccccc2)n1)N/N=C/c1ccc(-c2ccc(Cl)cc2)o1 is 25.9

4'-phosphopantetheinyl transferase ffp (Bacillus subtilis) (UniProt Q9F4F7) largest response in the series, negative = inhibition of COc1ccc(C(C)NC(=O)C23CC4CC(CC(C4)C2)C3)cc1 (configuration not stated) is 5.95

4'-phosphopantetheinyl transferase ffp (Bacillus subtilis) (UniProt Q9F4F7) largest response in the series, negative = inhibition of CC(NCCc1ccc(S(N)(=O)=O)cc1)C(=O)NCc1ccccc1 (configuration not stated) is 4.54

4'-phosphopantetheinyl transferase ffp (Bacillus subtilis) (UniProt Q9F4F7) largest response in the series, negative = inhibition of Cc1nnc(SCC(N)=O)n1CC1CCCO1 (configuration not stated) is 13.7

4'-phosphopantetheinyl transferase ffp (Bacillus subtilis) (UniProt Q9F4F7) largest response in the series, negative = inhibition of O=C(Nc1cccc(Cl)c1)OCc1ccccn1 is 3.07

4'-phosphopantetheinyl transferase ffp (Bacillus subtilis) (UniProt Q9F4F7) largest response in the series, negative = inhibition of NC(=O)c1c(NC(=O)CSc2nc(N)cc(=O)[nH]2)sc2c1CCCC2 is -28

4'-phosphopantetheinyl transferase ffp (Bacillus subtilis) (UniProt Q9F4F7) largest response in the series, negative = inhibition of CC1(C(=O)NNC(=S)NCC2CCCO2)CC1(Cl)Cl (configuration not stated) is 17.2

4'-phosphopantetheinyl transferase ffp (Bacillus subtilis) (UniProt Q9F4F7) largest response in the series, negative = inhibition of CC1(C)C2CCC1(CS(=O)(=O)NCCc1c[nH]c3ccccc13)C(=O)C2 (configuration not stated) is 3.13

4'-phosphopantetheinyl transferase ffp (Bacillus subtilis) (UniProt Q9F4F7) largest response in the series, negative = inhibition of CC(=O)N1CCN(CC(=O)Nc2ccc(C)c(F)c2)CC1 is -24.9

4'-phosphopantetheinyl transferase ffp (Bacillus subtilis) (UniProt Q9F4F7) largest response in the series, negative = inhibition of O=C(CCCN1C(=O)/C(=C\c2ccccc2)SC1=S)Nc1ccccc1O is 17.9

---

# target: 4'-phosphopantetheinyl transferase ffp (Bacillus subtilis) (UniProt Q9F4F7)
# assay_name: qHTS Assay for Inhibitors of Bacillus subtilis Sfp phosphopantetheinyl transferase (PPTase);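 note: the enzyme is Sfp with the accession as filed and its product quenches rhodamine fluorescence; 0% = enzyme reaction without inhibitor and -100% = no enzyme wells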
# setup_conditions: Biochemical Sfp PPTase activity
In all, about 310,000 compounds went through this assay and about 11,000 (3.5%) were called active. Inconclusive results (about 4%) are left out. Only a selection was taken, and actives are over-represented in it overall.
For each of the compounds below, state its largest response in the series, negative = inhibition.
Numbers only here, please. The scale is %.

4'-phosphopantetheinyl transferase ffp (Bacillus subtilis) (UniProt Q9F4F7) largest response in the series, negative = inhibition of O=Cc1c(N2CCN(c3cccc(Cl)c3)CC2)nc2ccccn2c1=O is -4.2

4'-phosphopantetheinyl transferase ffp (Bacillus subtilis) (UniProt Q9F4F7) largest response in the series, negative = inhibition of CCOC(=O)N1CCN(S(=O)(=O)c2ccc(Br)cc2)CC1 is 12.6

4'-phosphopantetheinyl transferase ffp (Bacillus subtilis) (UniProt Q9F4F7) largest response in the series, negative = inhibition of CCn1cc(C(=O)N2CC(C)CC(C)C2)c(=O)c2cc(S(=O)(=O)N3CCCC3)ccc21 (stereo not drawn) is 3.15

4'-phosphopantetheinyl transferase ffp (Bacillus subtilis) (UniProt Q9F4F7) largest response in the series, negative = inhibition of COc1ccc(N2CCN(C(=O)c3cn(C)c4ccc(S(=O)(=O)N5CCOCC5)cc4c3=O)CC2)cc1 is 1.25

4'-phosphopantetheinyl transferase ffp (Bacillus subtilis) (UniProt Q9F4F7) largest response in the series, negative = inhibition of COc1ccc(C(=O)Nc2c(Cl)cc(Cl)cc2C(=O)N2CCC(C)CC2)cc1 is 11.9

4'-phosphopantetheinyl transferase ffp (Bacillus subtilis) (UniProt Q9F4F7) largest response in the series, negative = inhibition of CN(Cc1ccccc1)C(=O)CSc1nc2ccccc2[nH]1 is 9.63

4'-phosphopantetheinyl transferase ffp (Bacillus subtilis) (UniProt Q9F4F7) largest response in the series, negative = inhibition of CCCOc1ccc(CNC(=O)C2CCN(c3nn4c(=O)cc(C)nc4s3)CC2)cc1 is 7.3

4'-phosphopantetheinyl transferase ffp (Bacillus subtilis) (UniProt Q9F4F7) largest response in the series, negative = inhibition of CCn1c(SCC(=O)Nc2cc(C)c(Cl)cc2OC)nnc1-c1ccco1 is 2.43

4'-phosphopantetheinyl transferase ffp (Bacillus subtilis) (UniProt Q9F4F7) largest response in the series, negative = inhibition of COc1ccc(S(=O)(=O)n2nc(C)c(S(=O)(=O)N3CCOCC3)c2C)cc1 is 8.67

4'-phosphopantetheinyl transferase ffp (Bacillus subtilis) (UniProt Q9F4F7) largest response in the series, negative = inhibition of COc1cc(Cl)c(C)cc1NC(=O)CSc1nnc(-c2cccnc2)n1Cc1ccco1 is -18.1

4'-phosphopantetheinyl transferase ffp (Bacillus subtilis) (UniProt Q9F4F7) largest response in the series, negative = inhibition of Cc1csc(NC(=O)c2ccc(-c3ccc(Cl)cc3Cl)o2)n1 is 1.33

4'-phosphopantetheinyl transferase ffp (Bacillus subtilis) (UniProt Q9F4F7) largest response in the series, negative = inhibition of NS(=O)(=O)c1ccccc1NC(=O)c1c(O)c2ccccc2[nH]c1=O is -6.41

4'-phosphopantetheinyl transferase ffp (Bacillus subtilis) (UniProt Q9F4F7) largest response in the series, negative = inhibition of COc1cc(/C=C2/C(=O)ON=C2C)ccc1OCc1cccc(F)c1 is -29.4

4'-phosphopantetheinyl transferase ffp (Bacillus subtilis) (UniProt Q9F4F7) largest response in the series, negative = inhibition of CCCCC(CC)CNCc1cccn1CCN1CCOCC1 (stereo not drawn) is -12.1

4'-phosphopantetheinyl transferase ffp (Bacillus subtilis) (UniProt Q9F4F7) largest response in the series, negative = inhibition of CCOc1cc(/C=N/O)ccc1OCc1ccccc1F is 2.28

4'-phosphopantetheinyl transferase ffp (Bacillus subtilis) (UniProt Q9F4F7) largest response in the series, negative = inhibition of O=C(NC1CCCCCCC1)c1cccs1 is -20.5

4'-phosphopantetheinyl transferase ffp (Bacillus subtilis) (UniProt Q9F4F7) largest response in the series, negative = inhibition of CC(=O)Nc1ccc(NC(=O)CC2CCCC2)cc1 is 1.03

4'-phosphopantetheinyl transferase ffp (Bacillus subtilis) (UniProt Q9F4F7) largest response in the series, negative = inhibition of CCn1c(SCc2ccccc2)nc2c(c1=O)SCC2 is 11.2

4'-phosphopantetheinyl transferase ffp (Bacillus subtilis) (UniProt Q9F4F7) largest response in the series, negative = inhibition of COc1ccc(N(C(=O)c2cccnc2)S(=O)(=O)c2ccc(OC)c(OC)c2)cc1 is 3.04

4'-phosphopantetheinyl transferase ffp (Bacillus subtilis) (UniProt Q9F4F7) largest response in the series, negative = inhibition of CCn1cc(C(=O)NCC2CCCO2)c(=O)c2cc(S(=O)(=O)N3CCCCC3)ccc21 (stereo not drawn) is 4.08

4'-phosphopantetheinyl transferase ffp (Bacillus subtilis) (UniProt Q9F4F7) largest response in the series, negative = inhibition of COC(=O)C1(C)C=CC2(CCCCC2)N1C(C)=O (stereo not drawn) is -0.895

4'-phosphopantetheinyl transferase ffp (Bacillus subtilis) (UniProt Q9F4F7) largest response in the series, negative = inhibition of NC(=O)C1CCCN(CC(=O)N2CCN(c3ccccc3)CC2)C1 (stereo not drawn) is 19

4'-phosphopantetheinyl transferase ffp (Bacillus subtilis) (UniProt Q9F4F7) largest response in the series, negative = inhibition of COc1ccc(C)cc1NC(=O)c1[nH]c(C)c(C(C)=O)c1C is 1.79
